In this section, each of the compounds is paired with its reported pIC50.
# ASSAY_TARGET: α4β1 integrin (Homo sapiens, UniProt P05556+P13612)
# PROTOCOL_TEXT: a4b1 IC50 (inhibition of α4β1 integrin; no method described)
pIC50: −log10 of the molar value.
PARAMETER_MEASURED: pIC50

[[record]]
compound = "CCc1ccccc1Cc1cccc([C@H](CC(=O)O)NC(=O)Nc2c(O)ccn(C)c2=O)c1 [Compound 3-80]"
parameter_measured = "pIC50"
observed_value = "> 7.70"

[[record]]
compound = "Cn1ccc(O)c(NC(=O)N[C@@H](CC(=O)O)c2cccc(Cc3ccccc3C(F)(F)F)c2)c1=O [Compound 3-88]"
parameter_measured = "pIC50"
observed_value = "> 7.70"

[[record]]
compound = "Cc1cn(C)c(=O)c(NC(=O)NC(CC(=O)O)c2cccc(Cc3ccccc3Cl)c2)c1O (stereo not shown) [Compound 1-24]"
parameter_measured = "pIC50"
observed_value = "> 6.70"

[[record]]
compound = "COc1ccccc1Oc1ccc([C@H](CC(=O)O)NC(=O)Nc2c(O)cc(C)n(C)c2=O)cc1 [Compound 2-11]"
parameter_measured = "pIC50"
observed_value = "> 6.70"


----------
# ASSAY_TARGET: α4β1 integrin (Homo sapiens, UniProt P05556+P13612)
# PROTOCOL_TEXT: a4b1 IC50 (inhibition of α4β1 integrin; no method described)
pIC50: −log10 of the molar value.
In this section, each of the molecules is paired with its reported pIC50.
PARAMETER_MEASURED: pIC50

[[record]]
molecule = "Cn1ccc(O)c(NC(=O)N[C@@H](CC(=O)O)c2ccc(Cc3ccccc3)cc2)c1=O"
parameter_measured = "pIC50"
observed_value = "> 7.70"

[[record]]
molecule = "Cc1cn(C)c(=O)c(NC(=O)N[C@@H](CC(=O)O)c2ccc(Cc3ccccc3Cl)cc2)c1O"
parameter_measured = "pIC50"
observed_value = "< 6.70"

[[record]]
molecule = "Cc1ccccc1Cc1ccc([C@H](CC(=O)O)NC(=O)Nc2c(O)ccn(C)c2=O)cc1"
parameter_measured = "pIC50"
observed_value = "> 6.70"

[[record]]
molecule = "Cn1ccc(O)c(NC(=O)N[C@@H](CC(=O)O)c2cccc(Oc3ccc(F)cc3F)c2)c1=O"
parameter_measured = "pIC50"
observed_value = "> 7.70"

[[record]]
molecule = "Cn1ccc(O)c(NC(=O)N[C@@H](CC(=O)O)c2cccc(Cc3cccc(C(F)(F)F)c3)c2)c1=O"
parameter_measured = "pIC50"
observed_value = "> 7.70"

[[record]]
molecule = "Cc1ccccc1C(F)(F)c1cccc([C@@H](CC(=O)O)NC(=O)Nc2c(O)ccn(C)c2=O)c1"
parameter_measured = "pIC50"
observed_value = "< 6.70"

[[record]]
molecule = "Cc1ccc(Cc2cccc([C@H](CC(=O)O)NC(=O)Nc3c(O)ccn(C)c3=O)c2)cc1"
parameter_measured = "pIC50"
observed_value = "> 7.70"

[[record]]
molecule = "Cc1cn(C)c(=O)c(NC(=O)N[C@@H](CC(=O)O)c2cccc(Cc3ccccc3)c2)c1O"
parameter_measured = "pIC50"
observed_value = "> 6.70"

[[record]]
molecule = "COc1cccc(Oc2ccc([C@H](CC(=O)O)NC(=O)Nc3c(O)cc(C)n(C)c3=O)cc2)c1"
parameter_measured = "pIC50"
observed_value = "> 6.70"

[[record]]
molecule = "Cn1ccc(O)c(NC(=O)N[C@@H](CC(=O)O)c2cccc(Oc3ccccc3)c2)c1=O"
parameter_measured = "pIC50"
observed_value = "> 6.70"

[[record]]
molecule = "Cc1cccc(Oc2cccc([C@H](CC(=O)O)NC(=O)Nc3c(O)ccn(C)c3=O)c2)c1"
parameter_measured = "pIC50"
observed_value = "> 7.70"

[[record]]
molecule = "Cc1ccccc1C(F)(F)c1cccc([C@H](CC(=O)O)NC(=O)Nc2c(O)ccn(C)c2=O)c1"
parameter_measured = "pIC50"
observed_value = "> 7.70"

[[record]]
molecule = "Cn1ccc(O)c(NC(=O)N[C@@H](CC(=O)O)c2cccc(Oc3ccccc3Cl)c2)c1=O"
parameter_measured = "pIC50"
observed_value = "> 7.70"

[[record]]
molecule = "Cc1ccc(F)cc1Cc1cccc([C@H](CC(=O)O)NC(=O)Nc2c(O)ccn(C)c2=O)c1"
parameter_measured = "pIC50"
observed_value = "> 7.70"

[[record]]
molecule = "Cc1cn(C)c(=O)c(NC(=O)NC(CC(=O)O)c2cccc(Oc3ccccc3)c2)c1O (stereo not shown)"
parameter_measured = "pIC50"
observed_value = "> 6.70"

[[record]]
molecule = "Cn1ccc(O)c(NC(=O)N[C@@H](CC(=O)O)c2cccc(Cc3ccccc3OC(F)F)c2)c1=O"
parameter_measured = "pIC50"
observed_value = "> 7.70"

[[record]]
molecule = "Cn1ccc(O)c(NC(=O)N[C@@H](CC(=O)O)c2cccc(Cc3ccccc3F)c2)c1=O"
parameter_measured = "pIC50"
observed_value = "> 7.70"

[[record]]
molecule = "Cc1ccccc1Oc1ccc([C@H](CC(=O)O)NC(=O)Nc2c(O)ccn(C)c2=O)cc1"
parameter_measured = "pIC50"
observed_value = "> 7.70"

[[record]]
molecule = "Cc1ccccc1Cc1cccc([C@H](CC(=O)O)NC(=O)Nc2c(O)c(C)cn(C)c2=O)c1"
parameter_measured = "pIC50"
observed_value = "> 7.70"

[[record]]
molecule = "Cc1ccccc1Cc1cccc([C@H](CC(=O)O)NC(=O)Nc2c(O)ccn(C)c2=O)c1"
parameter_measured = "pIC50"
observed_value = "> 7.70"

[[record]]
molecule = "COc1ccccc1Oc1cccc([C@H](CC(=O)O)NC(=O)Nc2c(O)ccn(C)c2=O)c1"
parameter_measured = "pIC50"
observed_value = "> 7.70"

[[record]]
molecule = "Cc1cccc(Cc2ccc([C@H](CC(=O)O)NC(=O)Nc3c(O)ccn(C)c3=O)cc2)c1"
parameter_measured = "pIC50"
observed_value = "< 6.70"


----------
# ASSAY_TARGET: α4β1 integrin (Homo sapiens, UniProt P05556+P13612)
# PROTOCOL_TEXT: a4b1 IC50 (inhibition of α4β1 integrin; no method described)
PARAMETER_MEASURED: IC50

[[record]]
test_smiles = "Cc1cccc(C)c1Oc1cccc([C@H](CC(=O)O)NC(=O)Nc2c(O)ccn(C)c2=O)c1"
parameter_measured = "IC50"
observed_value = "< 20 nM"

[[record]]
test_smiles = "Cc1cccc(Cc2cccc([C@H](CC(=O)O)NC(=O)Nc3c(O)ccn(C)c3=O)c2)c1"
parameter_measured = "IC50"
observed_value = "< 200 nM"

[[record]]
test_smiles = "Cn1ccc(O)c(NC(=O)N[C@@H](CC(=O)O)c2cccc(Cc3ccc(C(F)(F)F)cc3)c2)c1=O"
parameter_measured = "IC50"
observed_value = "< 20 nM"

[[record]]
test_smiles = "Cc1ccc(Oc2cccc([C@H](CC(=O)O)NC(=O)Nc3c(O)ccn(C)c3=O)c2)cc1"
parameter_measured = "IC50"
observed_value = "< 20 nM"


----------
# ASSAY_TARGET: α4β7 integrin (Homo sapiens, UniProt P13612+P26010)
# Sequence (P13612 34-1032): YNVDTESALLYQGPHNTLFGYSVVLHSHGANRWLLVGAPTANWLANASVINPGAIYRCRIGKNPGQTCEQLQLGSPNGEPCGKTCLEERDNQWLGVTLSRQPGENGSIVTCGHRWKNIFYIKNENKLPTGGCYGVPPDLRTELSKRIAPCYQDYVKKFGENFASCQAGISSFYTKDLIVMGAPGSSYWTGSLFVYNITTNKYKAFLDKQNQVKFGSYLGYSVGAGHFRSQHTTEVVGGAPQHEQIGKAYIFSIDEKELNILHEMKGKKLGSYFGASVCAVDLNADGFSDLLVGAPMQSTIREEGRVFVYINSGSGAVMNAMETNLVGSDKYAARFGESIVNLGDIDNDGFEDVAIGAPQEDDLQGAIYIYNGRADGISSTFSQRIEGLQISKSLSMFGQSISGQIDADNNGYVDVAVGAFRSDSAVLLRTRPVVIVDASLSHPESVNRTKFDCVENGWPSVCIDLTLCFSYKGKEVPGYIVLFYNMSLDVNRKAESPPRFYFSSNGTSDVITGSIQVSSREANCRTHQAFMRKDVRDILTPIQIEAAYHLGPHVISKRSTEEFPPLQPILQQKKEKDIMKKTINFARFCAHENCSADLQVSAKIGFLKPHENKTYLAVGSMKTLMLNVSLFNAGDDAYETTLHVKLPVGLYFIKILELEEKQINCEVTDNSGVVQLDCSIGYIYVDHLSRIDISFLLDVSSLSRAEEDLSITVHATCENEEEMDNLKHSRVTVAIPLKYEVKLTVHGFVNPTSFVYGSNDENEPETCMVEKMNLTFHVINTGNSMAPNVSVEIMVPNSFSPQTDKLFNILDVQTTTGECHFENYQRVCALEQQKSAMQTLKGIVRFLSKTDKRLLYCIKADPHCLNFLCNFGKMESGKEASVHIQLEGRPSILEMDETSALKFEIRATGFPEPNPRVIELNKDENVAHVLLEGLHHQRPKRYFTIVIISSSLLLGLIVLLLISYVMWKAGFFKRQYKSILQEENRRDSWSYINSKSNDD
# Sequence (P26010 20-798): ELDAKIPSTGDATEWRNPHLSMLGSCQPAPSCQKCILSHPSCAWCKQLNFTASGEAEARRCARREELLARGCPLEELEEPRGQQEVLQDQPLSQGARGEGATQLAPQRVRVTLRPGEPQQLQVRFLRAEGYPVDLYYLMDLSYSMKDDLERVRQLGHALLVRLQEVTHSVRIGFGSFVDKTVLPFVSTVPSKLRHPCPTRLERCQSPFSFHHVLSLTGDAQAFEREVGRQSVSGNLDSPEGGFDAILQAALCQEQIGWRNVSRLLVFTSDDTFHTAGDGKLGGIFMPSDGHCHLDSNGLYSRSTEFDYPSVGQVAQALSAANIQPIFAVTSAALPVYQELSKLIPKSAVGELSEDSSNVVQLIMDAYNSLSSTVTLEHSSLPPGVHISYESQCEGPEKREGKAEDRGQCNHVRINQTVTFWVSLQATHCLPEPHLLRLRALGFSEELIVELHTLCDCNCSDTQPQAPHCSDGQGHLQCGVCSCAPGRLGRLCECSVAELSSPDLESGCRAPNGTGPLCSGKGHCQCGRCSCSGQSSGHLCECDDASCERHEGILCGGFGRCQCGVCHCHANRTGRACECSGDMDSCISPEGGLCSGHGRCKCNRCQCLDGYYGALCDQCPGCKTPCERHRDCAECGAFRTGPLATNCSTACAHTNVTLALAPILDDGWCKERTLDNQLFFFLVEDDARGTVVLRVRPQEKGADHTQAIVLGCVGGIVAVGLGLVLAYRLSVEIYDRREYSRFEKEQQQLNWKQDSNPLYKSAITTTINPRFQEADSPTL
# PROTOCOL_TEXT: a4b7 IC50 (inhibition of α4β7 integrin; no method described)
PARAMETER_MEASURED: IC50

[[record]]
test_smiles = "Cn1ccc(O)c(NC(=O)N[C@@H](CC(=O)O)c2cccc(Oc3ccccc3)c2)c1=O"
parameter_measured = "IC50"
observed_value = "< 20 nM"

[[record]]
test_smiles = "Cc1ccccc1C(F)(F)c1cccc([C@H](CC(=O)O)NC(=O)Nc2c(O)ccn(C)c2=O)c1"
parameter_measured = "IC50"
observed_value = "< 200 nM"

